Attribution: the RNAGym collection of RNA variant scans (doi:10.7554/elife.80360)

B1: CPEB3 Ribozyme (parent)
chain: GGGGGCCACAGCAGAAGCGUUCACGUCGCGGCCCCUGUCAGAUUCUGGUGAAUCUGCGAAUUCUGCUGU

variants of: B1; test: self-cleavage, relative activity (ratio to wild type); higher = more cleavage; co-transcriptional
Binary classification by self-cleavage, with 0.3 as an inclusive lower bound for TRUE; all other cases are FALSE.

>>> df
    variant_code  assigned_label
 0     C22U U46A           FALSE
 1      G5A C57A           FALSE
 2      G4U U21A            TRUE
 3     A23G U55C            TRUE
 4     G19C C57G           FALSE
 5     G30A U43A            TRUE
 6     C29G A59C           FALSE
 7     U36G C63U            TRUE
 8     G47C A52G            TRUE
 9     G37U C39U           FALSE
10     C22G G50C           FALSE
